LD50 at 2 h values by entry
EXPERIMENT_SUMMARY: Lethal dose was obtained by 2-h post administration (ip), using four male Royal Hart Wistar rats
Type: toxicity, organism-based
PARTICULARS: rat, in vivo
RESULT_TYPE: LD50 at 2 h (mg/kg)

molecule=Cc1ccccc1-n1c(C)nc2ccccc2c1=O result_type="LD50 at 2 h" result_unit=mg/kg relation_symbol== reading=565
molecule=NC(=O)/C=C/c1cccc(C(F)(F)F)c1 result_type="LD50 at 2 h" result_unit=mg/kg relation_symbol== reading=260
molecule="CN1C(=O)CCC1(O)c1ccc(C(F)(F)F)cc1 (stereo unspecified)" result_type="LD50 at 2 h" result_unit=mg/kg relation_symbol=> reading=400
molecule="CCCCN1C(=O)CCC1(O)c1cccc(C(F)(F)F)c1 (stereo unspecified)" result_type="LD50 at 2 h" result_unit=mg/kg relation_symbol=> reading=400
molecule=CNC(=O)/C=C/c1cccc(C(F)(F)F)c1 result_type="LD50 at 2 h" result_unit=mg/kg relation_symbol== reading=275
molecule="CN1C(=O)CCC1(O)c1ccccc1 (stereo unspecified)" result_type="LD50 at 2 h" result_unit=mg/kg relation_symbol== reading=300
molecule="CN1C(=O)CCC1(O)c1cccc(Cl)c1 (stereo unspecified)" result_type="LD50 at 2 h" result_unit=mg/kg relation_symbol=> reading=400
molecule="CCC(O)CNC(=O)/C=C/c1cccc(C(F)(F)F)c1 (stereo unspecified)" result_type="LD50 at 2 h" result_unit=mg/kg relation_symbol== reading=333
molecule="CCN1C(=O)CCC1(O)c1cccc(C(F)(F)F)c1 (stereo unspecified)" result_type="LD50 at 2 h" result_unit=mg/kg relation_symbol=> reading=400
molecule=CC(C)CNC(=O)CCC(=O)c1cccc(C(F)(F)F)c1 result_type="LD50 at 2 h" result_unit=mg/kg relation_symbol== reading=162
molecule=CN(C)C(=O)CCC(=O)c1cccc(C(F)(F)F)c1 result_type="LD50 at 2 h" result_unit=mg/kg relation_symbol== reading=300
molecule=CCNC(=O)/C=C/c1cccc(C(F)(F)F)c1 result_type="LD50 at 2 h" result_unit=mg/kg relation_symbol== reading=333
molecule="CN1C(=O)CCC1(O)c1cccc(C(F)(F)F)c1 (stereo unspecified)" result_type="LD50 at 2 h" result_unit=mg/kg relation_symbol== reading=367
molecule="O=C1CCC(O)(c2cccc(C(F)(F)F)c2)N1 (stereo unspecified)" result_type="LD50 at 2 h" result_unit=mg/kg relation_symbol=> reading=400
molecule=CN1CCN(C(=O)CCC(=O)c2cccc(C(F)(F)F)c2)CC1 result_type="LD50 at 2 h" result_unit=mg/kg relation_symbol=> reading=400
molecule=CNC(=O)/C(C)=C/c1cccc(C(F)(F)F)c1 result_type="LD50 at 2 h" result_unit=mg/kg relation_symbol== reading=300
molecule=CN(C)C(=O)/C=C/c1cccc(C(F)(F)F)c1 result_type="LD50 at 2 h" result_unit=mg/kg relation_symbol== reading=300
molecule=O=C(/C=C/c1cccc(C(F)(F)F)c1)NCCO result_type="LD50 at 2 h" result_unit=mg/kg relation_symbol== reading=400
molecule=CN1CCN(C(=O)/C=C/c2cccc(C(F)(F)F)c2)CC1 result_type="LD50 at 2 h" result_unit=mg/kg relation_symbol== reading=300
molecule=O=C(CCC(=O)c1cccc(C(F)(F)F)c1)NC1CCCCC1 result_type="LD50 at 2 h" result_unit=mg/kg relation_symbol=> reading=400
molecule=CC(C)NC(=O)CCC(=O)c1cccc(C(F)(F)F)c1 result_type="LD50 at 2 h" result_unit=mg/kg relation_symbol=> reading=400
molecule="O=C(/C=C/c1ccccc1)NCCO [IDROCILAMIDE]" result_type="LD50 at 2 h" result_unit=mg/kg relation_symbol=> reading=400
molecule="CCC(C)NC(=O)CCC(=O)c1cccc(C(F)(F)F)c1 (stereo unspecified)" result_type="LD50 at 2 h" result_unit=mg/kg relation_symbol== reading=300
molecule="CCCN1C(=O)CCC1(O)c1cccc(C(F)(F)F)c1 (stereo unspecified)" result_type="LD50 at 2 h" result_unit=mg/kg relation_symbol=> reading=400
molecule=CNC(=O)/C=C(\C)c1cccc(C(F)(F)F)c1 result_type="LD50 at 2 h" result_unit=mg/kg relation_symbol=> reading=400
molecule="Cc1cccc(C2(O)CCC(=O)N2C)c1 (stereo unspecified)" result_type="LD50 at 2 h" result_unit=mg/kg relation_symbol== reading=300
